Binary classification by flash point, with 80 °C as an inclusive lower bound for 1; all other cases are -1.

Query :: # check: flash point of O=[N+]([O-])c1ccccc1-c1ccccc1 [1-nitro-2-phenylbenzene] is greater than or equal to 80 °C
Result :: 1

Query :: In plain terms: is recorded flash point at least 80 °C for Clc1ccccc1 [chlorobenzene] ?
Result :: -1

Query :: Tell me whether flash point is at least 80 °C here: Clc1ccc(-c2ccc(Cl)c(Cl)c2Cl)c(Cl)c1Cl [1,2,3-trichloro-4-(2,3,4-trichlorophenyl)benzene]
Result :: 1

Query :: Is it the case that C=C(C)C#N [2-methylprop-2-enenitrile] has flash point reaching or exceeding 80 °C?
Result :: -1

Query :: Hi, just wondering whether CC(C)(C)OCC1CO1 (stereo not given) [2-[(2-methylpropan-2-yl)oxymethyl]oxirane] shows flash point of 80 °C or higher.
Result :: -1

Query :: Reported flash point reaches at least 80 °C for C[CH2][Al]([Cl])[CH2]C [chloro(diethyl)alumane] ?
Result :: -1

Query :: Assess whether reported flash point for CCCCCN [pentan-1-amine] sits at 80 °C or higher.
Result :: -1

Query :: Has O=C=Nc1ccc2ccccc2c1N=C=O [1,2-diisocyanatonaphthalene] a recorded flash point greater than or equal to 80 °C?
Result :: 1

---

// values below are reported flash point
Supply the numeric figure in °C, leaving out any unit text.

GIVEN_SMILES: CCO[Si](C)(C)CCl
UNIT_ABBREVIATION: °C
flash point: 26.00
//
GIVEN_SMILES: CCCCCC[SiH3]
UNIT_ABBREVIATION: °C
flash point: 12.00

Query :: Tell me its flash point given `C[Si](C)(C)O[Si](C)(C)O[Si](C)(C)O[Si](C)(C)C` as the entry.
Result :: 62.00

Query :: Indicate its recorded flash point; the compound in question is `C[Si]1(C)CCCCO1`
Result :: 14.00

Query :: Give the reported value of flash point for this record: `Cl[Si](Cl)(Cl)C1CCCC1`
Result :: 77.00

Query :: Complete the entry with flash point for `C[SiH](C)Cl`
Result :: -28.00

Query :: Provide flash point value for the following compound: `CC[Si](Cl)(Cl)Cl`
Result :: -10.00

---

MEASURED_ATTRIBUTE: flash point (°C)
Report the figure in °C without appending any unit label.

Worked set:
COMPOUND: CC(=O)CC(C)C
flash point / °C: 14

COMPOUND: CCC1CCCCC1=O (stereo unspecified)
flash point / °C: 59

COMPOUND: C=CCO
flash point / °C: 22

COMPOUND: C1=CCCC1
flash point / °C: -30

Query :: Quick one: give measured flash point for C[C@@H]1CCCC[C@@H]1C [cis-1,2-dimethylcyclohexane]
Result :: 12

Query :: Could you please provide reported flash point for `CSCCC=O` ? Thanks!
Result :: 61

Query :: Look up and report measured flash point for this entry: `C=CCCCCCCCCCCCCCC`
Result :: 129

---

MEASURED_ATTRIBUTE: flash point (°C)
Number only, in °C; omit the unit.

Worked set:
COMPOUND: CC(=O)O[Si](C)(OC(C)=O)OC(C)=O
MEASURED_ATTRIBUTE: flash point
REPORTED_VALUE: 85.00
//
COMPOUND: CCC[Si](Cl)(CCC)CCC
MEASURED_ATTRIBUTE: flash point
REPORTED_VALUE: 76.00

Query :: Tell me its flash point given `CCO[Si](OCC)(OCC)OCC` as the entry.
Result :: 50.00

Query :: Kindly indicate its recorded flash point. Item: `CCCCCC[Si](C)(Cl)Cl`
Result :: 85.00

Query :: Assign flash point to the following record: `CC(=O)O[Si](C)(C)OC(C)=O`
Result :: 37.00

Query :: Report measured flash point; entry is `C=C[Si](OC)(OC)OC`
Result :: 23.00
